- System: MS2 coat protein
- assayDetails: apparent KD of MS2 coat protein, switch ON state; designed switch direction (-1 OFF switch, 1 ON switch): 1; higher = weaker reporter binding
- settings: FMN input: 0 or 200 uM; Eterna round: R93 (includes R88 designs)
quantityName: apparent KD of MS2 coat protein (nM)
Answers are plain numbers, in nM.

Examples with answers:
macromoleculeSequence	apparent KD of MS2 coat protein, nM
GAAAAACAUGAGGAUCACCCAUGUGUAAACAUGGGAGGAUAUACGAAGACGUAAGUCAAAGUAGAAGGCCUAAAAG [Garnet 36]	47.1
UAACGCGCAUGCAAGGAUAUGUGCAGAGCUACAUGAGGAUCACCCAUGUGGUUAUGCUAUUGAAAACAGAAGGUGCCCUCGCUCA [Ceties]	22.4

Fill in apparent KD of MS2 coat protein for each of the 6 sequences listed.
1. GAAAUACAUGAGGAUCACCCAUGUUAGGUGAUUCAAGGAUAUCAAGGUAAAUAAAAACCUUGAGAAGGUGAAUAAA [JR_SS001_Sub205]
2. AAAAAACAUGAGGAUCACCCAUGUGAAGAUAUGGAAGGAUAUACAAAGACGAAAGUCAAAGUAGAAGGUCUAAAAG [76%, Meechl 3]
3. AAACCACAUGAGGAUCACCCAUGUAAAAAUAUGGGAGGAUAUGCGAAAAGAAACAAAGAAGCAGAAGGCCUAAAAA [75%, Ex sub1, 19]
4. AAAAGACAUGAGGAUCACCCAUGUCAAGACAUAGGAGGAUAUGUCAUGAAAAAAGACUUGACAGAAGGCCUUUGUC [SS1 - 51]
5. GAAAAGAAAACACAGGAUAUCCAAAAGAAAACAUGAGGAUCACCCAUGUAAAGAAAAUAAAAAUGGGAGAAGGGUGAAAGAAAGA [Mat - Same State 2 - JL mod - D42]
6. CCGAUGGUAUACUAGGAUAUGGGCGCCCUUACAUGAGGAUCACCCAUGUUAUCACAAAUCCGCGGCCAGAAGGAGUUCAUGGGAG [Ustiririra]

(A)
1: 177; 2: 17.1; 3: 26.3; 4: 16.7; 5: 20.9; 6: 62.8
